molecular target: Tubulin (Bos taurus, UniProt Q6B856+Q862L2+Q862F3); assay: Inhibition of bovine brain tubulin preincubated for 20 mins by turbidimetry
# strict inequality: IC50 < 70 µM yields satisfied, everything else yields not satisfied

1. COc1cccc(/C=C\c2ncc([N+](=O)[O-])n2CCOC(=O)c2c[nH]c3ccccc23)c1 :: satisfied
2. O=C(OCCn1c([N+](=O)[O-])cnc1/C=C\c1cccc2ccccc12)c1c[nH]c2ccccc12 :: not satisfied
3. COc1ccc(/C=C\c2ncc([N+](=O)[O-])n2CCOC(=O)c2c[nH]c3ccccc23)cc1 :: satisfied
4. O=C(OCCn1c([N+](=O)[O-])cnc1/C=C\c1cccc(Br)c1)c1c[nH]c2ccccc12 :: not satisfied
5. O=C(OCCn1c([N+](=O)[O-])cnc1/C=C\c1cccc([N+](=O)[O-])c1)c1c[nH]c2ccccc12 :: satisfied
6. O=C(OCCn1c([N+](=O)[O-])cnc1/C=C\c1ccccc1Br)c1c[nH]c2ccccc12 :: not satisfied
7. O=C(OCCn1c([N+](=O)[O-])cnc1/C=C\c1ccc([N+](=O)[O-])cc1)c1c[nH]c2ccccc12 :: satisfied
